- target.of.assay: Nonstructural protein 5A (Hepatitis C virus) (UniProt Q5L478)
- Sequence (Q5L478 as listed by the source): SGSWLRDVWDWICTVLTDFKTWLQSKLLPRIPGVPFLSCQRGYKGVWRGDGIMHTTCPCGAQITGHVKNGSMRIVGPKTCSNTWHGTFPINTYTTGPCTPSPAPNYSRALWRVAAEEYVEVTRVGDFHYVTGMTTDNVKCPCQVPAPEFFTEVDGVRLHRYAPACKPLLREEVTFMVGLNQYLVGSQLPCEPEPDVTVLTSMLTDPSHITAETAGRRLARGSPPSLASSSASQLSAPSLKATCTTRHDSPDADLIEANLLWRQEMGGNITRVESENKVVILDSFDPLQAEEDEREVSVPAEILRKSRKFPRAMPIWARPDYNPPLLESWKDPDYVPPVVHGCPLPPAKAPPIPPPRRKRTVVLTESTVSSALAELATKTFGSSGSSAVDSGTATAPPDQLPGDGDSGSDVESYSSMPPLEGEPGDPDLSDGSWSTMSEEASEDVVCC
- test.method.notes: Inhibition of wild type HCV genotype 2b NS5A assessed as reduction in viral RNA level by cell based real time PCR method
- test.parameters: Hepatitis C virus subtype 2b
assay.metric: EC90 (nM)
API: value field is a number in nM; no unit string.

Note to self: EC90 recorded for `COC(=O)N[C@H](C(=O)N1CCC[C@H]1c1ncc(-c2ccc3c(c2)O[C@@H](c2ccccc2)n2c-3cc3cc(-c4cnc([C@@H]5CCCN5C(=O)[C@@H](NC(=O)OC)C5CCCC5)[nH]4)ccc32)[nH]1)C1CCCC1` was 52

For `COC(=O)N[C@H](C(=O)N1CCC[C@H]1c1ncc(-c2ccc3c(c2)cc2n3[C@H](c3ccccc3)Oc3cc(-c4cnc([C@@H]5CCCN5C(=O)[C@@H](NC(=O)OC)C5CCOCC5)[nH]4)ccc3-2)[nH]1)C(C)C` the compound record lists EC90 as 4

Value of measured EC90 for the entry `CC[C@H](NC(=O)OC)C(=O)N1CCC[C@H]1c1ncc(-c2ccc3c(c2)O[C@@H](c2ccccc2)n2c-3cc3cc(-c4cnc([C@@H]5CCCN5C(=O)[C@H](CC)NC(=O)OC)[nH]4)ccc32)[nH]1` : 65
